- experiment_description: Permeability of the compound across blood brain barrier incubated for 18 hrs by UV plate reader based PAMPA assay
- Assay type: ADME, tissue-based
- applied_conditions: read-out: permeability
Think of 5 ×10⁻⁶ cm/s as a floor: if Papp at 18 h stands on it or above, it is Criterion met; beneath it, Criterion not met.

Hi team, for CC(=O)[C@H]1CC[C@H]2[C@@H]3CCC4=CC(=O)CC[C@]4(C)[C@H]3CC[C@]12C , is the recorded Papp at 18 h at or above 5 ×10⁻⁶ cm/s? Criterion met

Same lookup for Cc1nnc2n1-c1ccc(Cl)cc1C(c1ccccc1)=NC2 , please. Criterion not met

Same lookup for CS(=O)(=O)c1ccc(NC(=O)N/N=C\c2c(Cl)cccc2Cl)cc1 , please. Criterion met

Same lookup for CCn1cc(C(=O)O)c(=O)c2cc(F)c(N3CCNC(C)C3)c(F)c21 (configuration not stated) , please. Criterion not met

Same lookup for CS(=O)(=O)c1ccc(NC(=O)N/N=C2/C(=O)Nc3ccc(Cl)cc32)cc1 , please. Criterion met

Same lookup for CS(=O)(=O)c1ccc(NC(=O)N/N=C\c2ccc(Cl)cc2)cc1 , please. Criterion met

---

- experiment_description: Tmax in 12 to 16 hrs fasted Wistar rat at 20 mg/kg, po measured after 0.5 to 48 hrs by HPLC analysis
- Format: ADME, organism-based
- applied_conditions: in vivo, time 12-16 hrs
measurement_label: Tmax (min)
Give the value, in units of min, as a plain number.

// query Tmax value for entry CS(=O)(=O)c1ccc(NC(=O)N/N=C\c2c(Cl)cccc2Cl)cc1 30

---

Known IC50 of a selection of molecules
- target_entity: Fatty-acid amide hydrolase 1 (Homo sapiens)
- experiment_description: Inhibition of human recombinant FAAH using arachidonoyl as substrate preincubated for 5 mins followed by substrate addition by fluorescence based assay
Give the value, in units of µM, as a plain number.

Example results:
// query IC50 value for entry C=CCN1C(=O)/C(=N/NC(=O)Nc2ccc(S(C)(=O)=O)cc2)c2ccccc21 1.28

Same lookup for CS(=O)(=O)c1ccc(NC(=O)NN=C(c2ccccc2)c2ccccc2)cc1 , please. 0.33

Same lookup for C/C(=N/NC(=O)Nc1ccc(S(C)(=O)=O)cc1)c1ccc(Br)cc1 , please. 0.103

***
// query IC50 value for entry CS(=O)(=O)c1ccc(NC(=O)N/N=C2/C(=O)Nc3ccccc32)cc1 0.034

Same lookup for CS(=O)(=O)c1ccc(NC(=O)N/N=C\c2c(Cl)cccc2Cl)cc1 , please. 0.011

Same lookup for C/C(=N/NC(=O)Nc1ccc(S(C)(=O)=O)cc1)c1ccc(O)cc1 , please. 1.46

Same lookup for CS(=O)(=O)c1ccc(NC(=O)N/N=C\c2cccc(Cl)c2Cl)cc1 , please. 1.05

Same lookup for CS(=O)(=O)c1ccc(NC(=O)N/N=C\c2ccccc2Cl)cc1 , please. 1.87

Same lookup for C#CCN1C(=O)/C(=N/NC(=O)Nc2ccc(S(C)(=O)=O)cc2)c2ccccc21 , please. 0.52

Same lookup for CS(=O)(=O)c1ccc(NC(=O)N/N=C\c2ccc(Cl)cc2)cc1 , please. 0.34

Same lookup for C/C(=N/NC(=O)Nc1ccc(S(C)(=O)=O)cc1)c1ccc([N+](=O)[O-])cc1 , please. 0.96

Same lookup for COc1ccc(/C=N\NC(=O)Nc2ccc(S(C)(=O)=O)cc2)cc1 , please. 0.035

Same lookup for C/C(=N/NC(=O)Nc1ccc(S(C)(=O)=O)cc1)c1ccc(F)cc1 , please. 0.093

Same lookup for CS(=O)(=O)c1ccc(NC(=O)N/N=C\c2ccc(O)cc2)cc1 , please. 0.78

Same lookup for CS(=O)(=O)c1ccc(NC(=O)N/N=C\c2ccccc2O)cc1 , please. 0.72

Same lookup for CS(=O)(=O)c1ccc(NC(=O)N/N=C\c2ccc(Cl)cc2Cl)cc1 , please. 0.019

---

- experiment_description: MRT (0 to infinity) in 12 to 16 hrs fasted Wistar rat at 20 mg/kg, po measured after 0.5 to 48 hrs by HPLC analysis
- Assay type: ADME, organism-based
- applied_conditions: in vivo, time 12-16 hrs
measurement_label: MRT inf (min)
Give the value, in units of min, as a plain number.

// query MRT inf value for entry CS(=O)(=O)c1ccc(NC(=O)N/N=C\c2c(Cl)cccc2Cl)cc1 30

---

- experiment_description: AUC(0 to t) in 12 to 16 hrs fasted Wistar rat at 20 mg/kg, po measured after 0.5 to 48 hrs by HPLC analysis
- Format: ADME, organism-based
- Parameters: time upper 16 hrs, dose 20 mg/kg, time lower 12 hrs, route po
- applied_conditions: in vivo
measurement_label: AUC(0-t) (ng·h/mL)
Give the value, in units of ng·h/mL, as a plain number.

// query AUC(0-t) value for entry CS(=O)(=O)c1ccc(NC(=O)N/N=C\c2c(Cl)cccc2Cl)cc1 8920

---

Known IC50 of a selection of compounds
- target_entity: Monoglyceride lipase (Homo sapiens)
- Sequence (Q99685 whole entry): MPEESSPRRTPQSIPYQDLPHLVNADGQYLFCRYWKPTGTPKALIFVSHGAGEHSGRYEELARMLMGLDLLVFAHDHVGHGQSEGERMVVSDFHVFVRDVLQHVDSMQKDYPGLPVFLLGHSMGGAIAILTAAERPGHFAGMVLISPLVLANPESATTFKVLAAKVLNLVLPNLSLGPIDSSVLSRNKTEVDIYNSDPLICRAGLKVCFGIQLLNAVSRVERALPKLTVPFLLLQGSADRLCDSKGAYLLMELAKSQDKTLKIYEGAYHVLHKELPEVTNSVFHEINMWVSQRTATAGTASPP
- experiment_description: Inhibition of human recombinant MAGL using 4-nitrophenyl acetate as substrate preincubated for 5 mins followed by substrate addition by fluorescence based colorimetry assay

// query IC50 value for entry C/C(=N/NC(=O)Nc1ccc(S(C)(=O)=O)cc1)c1ccc(Br)cc1 > 10 µM

***
// query IC50 value for entry C/C(=N/NC(=O)Nc1ccc(S(C)(=O)=O)cc1)c1ccc(Br)cc1Br > 10 µM

---

- experiment_description: Cmax in 12 to 16 hrs fasted Wistar rat at 20 mg/kg, po measured after 0.5 to 48 hrs by HPLC analysis
- Type: ADME, organism-based
- Set-up: time upper 16 hrs, dose 20 mg/kg, time lower 12 hrs, route po
- applied_conditions: in vivo
measurement_label: Cmax (ng/mL)
Give the value, in units of ng/mL, as a plain number.

// query Cmax value for entry CS(=O)(=O)c1ccc(NC(=O)N/N=C\c2c(Cl)cccc2Cl)cc1 22000

---

- target_entity: Fatty-acid amide hydrolase 1 (Homo sapiens)
- Sequence (O00519 whole entry): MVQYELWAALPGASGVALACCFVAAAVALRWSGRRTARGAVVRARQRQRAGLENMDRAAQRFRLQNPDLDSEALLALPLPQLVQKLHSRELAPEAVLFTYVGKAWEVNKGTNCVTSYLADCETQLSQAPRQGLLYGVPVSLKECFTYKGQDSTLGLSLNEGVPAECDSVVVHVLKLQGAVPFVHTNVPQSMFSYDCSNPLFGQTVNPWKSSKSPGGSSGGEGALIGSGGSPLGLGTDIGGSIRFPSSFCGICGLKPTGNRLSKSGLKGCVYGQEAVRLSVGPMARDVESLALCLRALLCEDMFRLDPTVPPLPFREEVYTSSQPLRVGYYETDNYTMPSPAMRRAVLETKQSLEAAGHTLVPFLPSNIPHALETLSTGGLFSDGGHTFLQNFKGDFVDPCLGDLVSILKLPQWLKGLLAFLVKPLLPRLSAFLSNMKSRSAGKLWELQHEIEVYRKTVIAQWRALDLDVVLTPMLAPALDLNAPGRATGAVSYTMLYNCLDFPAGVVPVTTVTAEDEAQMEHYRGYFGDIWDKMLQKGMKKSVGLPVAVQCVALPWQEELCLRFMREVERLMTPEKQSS
- experiment_description: Inhibition of recombinant human FAAH incubated for 5 mins followed by substrate addition by cayman fluorescence based multimode microplate reader assay
measurement_label: pIC50
By convention, pIC50 is the negative base-10 log of a molar concentration.

// query pIC50 value for entry O=C(Oc1ccc([N+](=O)[O-])cc1)N1CCN(Cc2cccc(Oc3ccccc3)c2)CC1 8.70

Attention now turns to another entry.
// query pIC50 value for entry O=C1Nc2cc(Cl)ccc2/C1=N\NC(=O)c1c(O)cccc1Cl 7.51

---

- experiment_description: Half life in 12 to 16 hrs fasted Wistar rat at 20 mg/kg, po measured after 0.5 to 48 hrs by HPLC analysis
- Format: ADME, organism-based
- applied_conditions: in vivo, time 12-16 hrs
measurement_label: half-life

// query half-life value for entry CS(=O)(=O)c1ccc(NC(=O)N/N=C\c2c(Cl)cccc2Cl)cc1 34.8 min

---

- target_entity: Fatty-acid amide hydrolase 1 (Homo sapiens, UniProt O00519)
measurement_label: Ki (nM)
Give the value, in units of nM, as a plain number.

// query Ki value for entry CS(=O)(=O)c1ccc(NC(=O)N/N=C\c2c(Cl)cccc2Cl)cc1 28

---

- target_entity: Fatty-acid amide hydrolase 1 (Homo sapiens)
- experiment_description: Inhibition of human recombinant FAAH using arachidonoyl as substrate preincubated for 5 mins followed by substrate addition by fluorescence based assay
measurement_label: IC50 (nM)
Give the value, in units of nM, as a plain number.

Kindly state the measured IC50 obtained for C/C(=N/NC(=O)Nc1ccc(S(C)(=O)=O)cc1)c1ccccc1 with Fatty-acid amide hydrolase 1 (Homo sapiens). 330

***
Kindly state the measured IC50 obtained for C/C(=N/NC(=O)Nc1ccc(S(C)(=O)=O)cc1)c1ccc(Br)cc1Br with Fatty-acid amide hydrolase 1 (Homo sapiens). 135
